tested on: Mycobacterium tuberculosis; assay: Antimicrobial activity against Mycobacterium tuberculosis H37Rv ATCC 27294 harboring pFCA-lux AB gene measured under anaerobic condition after 11 days by luminescence analysis; format: functional; conditions: H37Rv ATCC 27294, 264 h
Measurement type: MIC

| Smiles representation | Measurement type | Result |
| --- | --- | --- |
| O=[N+]([O-])c1cn2c(n1)OC[C@@H](NS(=O)(=O)c1ccccc1OC(F)(F)F)C2 | MIC | > 64 µM |
| CN(C(=O)N(C)[C@@H]1COc2nc([N+](=O)[O-])cn2C1)c1ccc(OC(F)(F)F)cc1 | MIC | > 64 µM |

Next compound, MIC to be filled in.
Looking up `O=C(Nc1ccc(-c2ccc(OC(F)(F)F)cc2)cc1)O[C@@H]1COc2nc([N+](=O)[O-])cn2C1` , I found its MIC recorded as > 32 µM

----------
system: Mycobacterium tuberculosis; experiment: Antimicrobial activity against Mycobacterium tuberculosis H37Rv ATCC 27294 harboring pFCA-lux AB gene measured under anaerobic condition after 11 days by luminescence analysis; type: functional; settings: H37Rv ATCC 27294, 264 h
Measurement type: MIC

Completed entries (count: 2):
| Smiles representation | MIC |
| --- | --- |
| O=[N+]([O-])c1cn2c(n1)OC[C@@H](NC(=S)Nc1ccc(OC(F)(F)F)cc1)C2 | > 64 µM |
| O=C(N[C@@H]1COc2nc([N+](=O)[O-])cn2C1)c1cccc(OC(F)(F)F)c1 | > 64 µM |

Next molecule, MIC to be filled in.
GET /values?item= `CN(C(=O)c1cccc(OC(F)(F)F)c1)[C@@H]1COc2nc([N+](=O)[O-])cn2C1` &system= Mycobacterium tuberculosis returns MIC: > 64 µM

----------
tested on: Mycobacterium tuberculosis; assay: Antimicrobial activity against Mycobacterium tuberculosis H37Rv ATCC 27294 harboring pFCA-lux AB gene measured under anaerobic condition after 11 days by luminescence analysis; type: functional; conditions: H37Rv ATCC 27294, 264 h
Measurement type: MIC

Completed entries (count: 4):
| Smiles representation | MIC |
| --- | --- |
| CN(C(=O)c1ccc(OC(F)(F)F)cc1)[C@@H]1COc2nc([N+](=O)[O-])cn2C1 | > 64 µM |
| CN(C(=O)c1ccccc1OC(F)(F)F)[C@@H]1COc2nc([N+](=O)[O-])cn2C1 | > 64 µM |
| O=C(COc1ccc(-c2ccc(C(F)(F)F)cc2)cc1)N[C@@H]1COc2nc([N+](=O)[O-])cn2C1 | > 32 µM |
| O=C(Cc1ccc(-c2ccc(F)nc2)cc1)N[C@@H]1COc2nc([N+](=O)[O-])cn2C1 | > 32 µM |

Next molecule, MIC to be filled in.
Looking up `O=C(Nc1ccc(-c2ccc(C(F)(F)F)cc2)cc1)N[C@@H]1COc2nc([N+](=O)[O-])cn2C1` , I found its MIC recorded as > 32 µM

----------
test system: Mycobacterium tuberculosis; assay: Antimicrobial activity against Mycobacterium tuberculosis H37Rv ATCC 27294 harboring pFCA-lux AB gene measured under anaerobic condition after 11 days by luminescence analysis; type: functional; conditions: H37Rv ATCC 27294, 264 h
Catalogue of MIC values

Looking up `O=C(Nc1ccc(-c2ccc(C(F)(F)F)cc2)cc1)O[C@@H]1COc2nc([N+](=O)[O-])cn2C1` , I found its MIC recorded as > 32 µM

Looking up `O=C(NCc1ccc(-c2ccc(C(F)(F)F)cc2)cc1)O[C@@H]1COc2nc([N+](=O)[O-])cn2C1` , I found its MIC recorded as > 32 µM

Looking up `O=C(N[C@@H]1COc2nc([N+](=O)[O-])cn2C1)c1ccccc1OC(F)(F)F` , I found its MIC recorded as > 64 µM

Looking up `O=C(NCc1ccc(-c2ccc(C(F)(F)F)cc2)cc1)N[C@@H]1COc2nc([N+](=O)[O-])cn2C1` , I found its MIC recorded as > 32 µM
